- target_or_test_system: HAT1 (Homo sapiens, UniProt O14929)
- Sequence (O14929 20-341): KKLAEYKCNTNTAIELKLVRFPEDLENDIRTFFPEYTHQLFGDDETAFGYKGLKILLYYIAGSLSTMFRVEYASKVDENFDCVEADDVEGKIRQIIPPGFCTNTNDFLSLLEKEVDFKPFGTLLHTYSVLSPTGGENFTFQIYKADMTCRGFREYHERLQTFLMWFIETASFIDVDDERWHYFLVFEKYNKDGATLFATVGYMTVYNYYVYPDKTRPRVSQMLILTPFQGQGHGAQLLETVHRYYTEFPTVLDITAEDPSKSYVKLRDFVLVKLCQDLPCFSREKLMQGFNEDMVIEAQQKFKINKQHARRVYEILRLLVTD
Recorded IC50 for the following compounds

{"smiles_string": "CC(=O)N[C@@H](CCCCNC(=O)CSCCNC(=O)CCNC(=O)[C@H](O)C(C)(C)COP(=O)(O)OP(=O)(O)OC[C@H]1O[C@@H](n2cnc3c(N)ncnc32)[C@H](O)[C@@H]1OP(=O)(O)O)C(N)=O", "value_units": "µM", "IC50": 74.9}
{"smiles_string": "CC(C)(COP(=O)(O)OP(=O)(O)OC[C@H]1O[C@@H](n2cnc3c(N)ncnc32)[C@H](O)[C@@H]1OP(=O)(O)O)[C@@H](O)C(=O)NCCC(=O)NCCS", "value_units": "µM", "IC50": 41.5}

====

- target_or_test_system: HAT1 (Homo sapiens, UniProt O14929)
observable: Ki (µM)

{"compound": "CC(C)(COP(=O)(O)OP(=O)(O)OC[C@H]1O[C@@H](n2cnc3c(N)ncnc32)[C@H](O)[C@@H]1OP(=O)(O)O)[C@@H](O)C(=O)NCCC(=O)NCCS [CoA]", "experimental_result": 14.6}
{"compound": "CC(=O)N[C@@H](CCCCNC(=O)CSCCNC(=O)CCNC(=O)[C@H](O)C(C)(C)COP(=O)(O)OP(=O)(O)OC[C@H]1O[C@@H](n2cnc3c(N)ncnc32)[C@H](O)[C@@H]1OP(=O)(O)O)C(N)=O [Lys-CoA, Ac-Lys(CoA)-NH2]", "experimental_result": 26.2}

These data points were gathered from paper PMC6533141.
